# Tested on: Cryptococcus neoformans
# cond: Concentration 20 uM; ASSAY_TEST Inhibition of Fungal Growth; detection method Resazurin; Absorption (OD600-OD570); plate type 384well; NBS; CORNING #3640
# Description: Antifungal activity against Cryptococcus neoformans H99 ATCC 208821 (CO-ADD:FG_002); MIC in YNB media using NBS plates, by Resazurin OD(600-570)
Results with a measured potency or affinity are listed apart.
quantity: Inhibition (%)
Express your answer in %, writing the number without its unit.

compound: O=[As](O)(O)c1ccc(/N=N/c2ccc(O)cc2)cc1
unitAbbreviation: %
Inhibition: -3.57

# input for lookup
Problem: Name the recorded Inhibition for O=C1/C(=C\c2ccccc2)C2OCC=C3CN4CCC56c7ccccc7N1C5C2C3CC46 (stereo not given) .
Result: -4.36

---

# System: Escherichia coli
# testDescription: Antibacterial activity against Escherichia coli ATCC 25922 (CO-ADD:GN_001); MIC in CAMBH media using NBS plates, by Resazurin F(560/590)
# Type: functional
# cond: Concentration 20 uM, ASSAY_TEST Inhibition of Bacterial Growth, detection method Resazurin, Fluorescence (ex560/em590), MEDIA CAMHB, plate type 384well, CORNING #3640, time 18 hr
quantity: Inhibition (%)
Reply with just the number (in %).

molecule: CC1CC(C)OP(=O)(OCCC#N)O1 (stereo unspecified)
unitAbbreviation: %
Inhibition: 9.51
//
molecule: O=S(=O)(F)c1ccc2nc(-c3cccc(Sc4ccccc4)c3)cc(Cl)c2c1
unitAbbreviation: %
Inhibition: 10.15
//
molecule: COc1ccc(CCNC2(C#N)CCCCC2)cc1OC
unitAbbreviation: %
Inhibition: 4.72
//
molecule: SC1=NC2(CCCCC2)NC12CCCCC2
unitAbbreviation: %
Inhibition: -0.29
//
molecule: O=C(Nc1ccc(F)cc1)Oc1cccnc1O
unitAbbreviation: %
Inhibition: 1.72

Problem: Form: Entry = Cc1ncc([N+](=O)[O-])n1CCOC(N)=O [BAMNIDAZOLE] | System = Escherichia coli | Inhibition = ____
Result: 15.41

Problem: Please state recorded Inhibition (tested on Escherichia coli) of CC12CCC3C(CC=C4CC(O)CCC43C)C1C/C(=C\N1CCCC1)C2=O (stereo unspecified)
Result: 1.6

Problem: Provide value of Inhibition for this record tested with Escherichia coli: CC(=O)OC1CCC2(C)C(CCC3C2CC(=O)C2(C)C3CC(N3CC3)C2C(C)=O)C1 (stereo unspecified)
Result: 9.74

Hello, the source for this data is ChEMBL document CHEMBL4296182, in case you need it.
